Where these numbers come from: PubChem BioAssay (NCI)

System: SNB-75 CNS
Assay: NCI-60 one-dose screen, 48 h
Settings: 10 µM unless noted
Method: Growth inhibition of the SNB-75 human tumor cell line is measured as a screen for anti-cancer activity. Cells are grown in 96 well plates and exposed to the test compound for 48 hours. Compounds are tested at a single concentration, which is 10^-5 M for most compounds. The reported endpoint is percent growth (GI% or GIPRCNT), where numbers from 0 - 100% represent growth inhibition, and numbers from -100% - 0 represent cell death. For example, a value of 40 represents 60% growth inhibition. […]
This is part of a sample that, as a whole, favours compounds with a hit. Of some 83,000 tested, about 20% had one in any assay. Calls of active or inactive are those of the source. The calls were made as follows: active = growth percent below 10; inactive = the rest.
Select the matching outcome among T for active, F for inactive

Which outcome did this test record for the compound O=C(/C=C(/C=C/c1coc2ccccc12)OB(F)F)/C=C/c1coc2ccccc12 ?
F

Which outcome did this test record for the compound NS(=O)(=O)c1ccc(CCn2c(SCC(=O)c3ccc(Cl)cc3)nc3ccccc3c2=O)cc1 ?
F

Which outcome did this test record for the compound CCCCCCCCCCCCCCCC[N+]1(C)CCN(SN2CC[N+](C)(CCCCCCCCCCCCCCCC)CC2)CC1 ?
F

Which outcome did this test record for the compound Cc1ccc(NC(C(=O)c2ccccc2)c2ccccc2)cc1 (stereo not drawn) ?
F

Which outcome did this test record for the compound c1ccc(-c2cn3c(ccc4ccccc43)n2)cc1 ?
F
